# Test system: AncSZ;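 further: 11-residue human phosphosite peptides and single-mutation variants displayed on the E. coli surface, counted by deep sequencing, each peptide's frequency after selection divided by its frequency in the unselected input library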;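 further: frequency after pTyr selection over input frequency; kinase dosed for 20-30% of maximal phosphorylation in three min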
# test: phosphorylation enrichment, bacterial display (enrichment ratio); higher = better substrate or ligand; peptides without Tyr show the background
Label Not met if phosphorylation enrichment falls below 0.8; label Met in every other case.

Known results for sequences:
* WGTPEYDSVVA [MAP1A_Y1883_A1881P] | Met
* ESLRSYDVMDV [KCNQ2_Y562_P561S] | Met
* DLAGRYFALKS [CKB_Y173_YF] | Not met
* AIYRRYSKFFD [SH3PXD2B_Y45] | Met
* SDYSRYARTSI [TERT_Y949_S948R] | Not met

query: Hi, just wondering whether YQLPYYNTVPS [BMPR1A_Y458_M460T] shows phosphorylation enrichment of 0.8 or higher.
result: Met

query: Determine whether measured phosphorylation enrichment meets or exceeds 0.8 for QEMMEYRHQIQ [DES_Y324]
result: Met

query: Confirm if phosphorylation enrichment reported for the sequence CTTIHYSYMCN [TP53_Y234_N235S] is 0.8 or above.
result: Met

query: Evaluate IYLADYRIMEG [ALOX12B_Y318] : phosphorylation enrichment at minimum 0.8?
result: Met

query: Reported phosphorylation enrichment reaches at least 0.8 for IKKFKYRIEEH [GJA1_Y137_G138R] ?
result: Not met

query: Please check the record HNLDYYKMTTN [FGFR3_Y648_K650M] and state if its phosphorylation enrichment is at or above 0.8.
result: Met

query: # check: phosphorylation enrichment of QAEELYFGKMG [YES1_Y159_W158L] is greater than or equal to 0.8
result: Met

query: Given the entry ANQDDYISFRH [IMP4_Y226] , answer whether its phosphorylation enrichment meets or surpasses 0.8.
result: Met

query: Evaluate WHHIFYNELRV [ACTG1_Y91_T89I] : phosphorylation enrichment at minimum 0.8?
result: Met

query: Evaluate SADIAYNFRHG [PAH_Y166_F161S_YF] : phosphorylation enrichment at minimum 0.8?
result: Not met

query: Exam item: decide whether the reported phosphorylation enrichment for LCRYGYANTSE [SI_Y1233] is at least 0.8.
result: Met

query: Say whether PDGVEYLKNNP [GRIN3A_Y831_D835N] shows phosphorylation enrichment of 0.8 or more.
result: Met

query: // inclusive: phosphorylation enrichment at least 0.8? input: LGSNTYPFLLM [SAG_Y120_T125M]
result: Met
